B1: RIT1 (parent)
chain: FHALVREIRRKEKEAVLAMEKKSK

Variants of: B1
Test: protein stability index of a GFP-peptide fusion (GPS, HEK-293T) (PSI 1-6); higher = more stable;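 note: lentivirally expressed fusions sorted by FACS into six bins by GFP to DsRed ratio, PSI derived from sequencing read proportions per bin multiplied by bin number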
Conditions: c terminus: a fixed tail appended
MEASURED_ATTRIBUTE: protein stability index
Give bare numbers.

Solved entries:
Entry L4S has what protein stability index?
2.77

Further, for R9L ?
2.12

Further, for E12G ?
2.28

Further, for K22Q ?
1.67

Further, for L4T ?
2.23

Further, for K21F ?
2.74

Further, for E12M ?
3.96

Further, for L17I ?
2.1

Further, for E14H ?
1.96

Further, for E14I ?
1.85

Parameter requested: protein stability index. Apply to each item below.
1. R6Q
2. H2C
3. K13D
4. A15Q
5. A3M

[1.84, 2.57, 1.56, 2.19, 1.96]

Parameter requested: protein stability index. Apply to each item below.
1. R6T
2. V5M
3. M19G

3.19
2.54
2.23

Parameter requested: protein stability index. Apply to each item below.
1. E20V
2. E14P

2.52
1.73

Parameter requested: protein stability index. Apply to each item below.
1. V5I
2. H2L

[2.56, 2.61]
